system: human Hsc70 (Homo sapiens)
Construct: made in house; host or cells: E. coli
experiment_description: Percent complexation of peptides with Hsc70 by size exclusion chromatography
Type: binding
condition_context: peptide:Hsc70 molar ratio 2:1; 60 minutes at 30° C.; SEC, 214 nm
Quick rule: Percent complexation of peptides with Hsc70, 2:1 of at least 80% means Y, below that means N.

# primary_sequence, system, class
rows = [
    ("FFRKNWLKLTW [PEP012]", "human Hsc70 (Homo sapiens)", "Y"),
    ("FFRKNWLKLKW [PEP055]", "human Hsc70 (Homo sapiens)", "Y"),
    ("FFRKNWLRLKW [PEP011]", "human Hsc70 (Homo sapiens)", "Y"),
    ("FFRKQWLRLTW [PEP014]", "human Hsc70 (Homo sapiens)", "Y"),
    ("FFRKNWLRLTW [PEP006]", "human Hsc70 (Homo sapiens)", "Y"),
    ("FFRKNFLRLTF [PEP027]", "human Hsc70 (Homo sapiens)", "Y"),
    ("FFRKNLLRLTG [PEP001, reference compound]", "human Hsc70 (Homo sapiens)", "Y"),
    ("FFRKNRLWLTG [PEP005]", "human Hsc70 (Homo sapiens)", "N"),
    ("FRNWLRLTW [PEP028]", "human Hsc70 (Homo sapiens)", "Y"),
    ("FFRKNWLKLRW [PEP057]", "human Hsc70 (Homo sapiens)", "Y"),
    ("FFRKNRLLLTG [PEP002]", "human Hsc70 (Homo sapiens)", "N"),
    ("FFRKNLLRLTW [PEP155]", "human Hsc70 (Homo sapiens)", "Y"),
]

* * *

system: human Hsc70 (Homo sapiens)
Construct: made in house; host or cells: E. coli
experiment_description: Percent complexation of peptides with Hsc70 by size exclusion chromatography
Format: binding
condition_context: peptide:Hsc70 molar ratio 0.25:1; 60 minutes at 30° C.; SEC, 214 nm
# Percent complexation of peptides with Hsc70, 0.25:1 per entry
reported_endpoint: Percent complexation of peptides with Hsc70, 0.25:1 (%)

# primary_sequence, system, reported_measurement
data = [
    ("FFRKNWLKLWK [PEP058]", "human Hsc70 (Homo sapiens)", 22.7),
    ("FFRKNLLRWTG [PEP004]", "human Hsc70 (Homo sapiens)", 15.4),
    ("FFRKNWLLLTW [PEP003]", "human Hsc70 (Homo sapiens)", 26.8),
]

* * *

system: human Hsc70 (Homo sapiens, UniProt P11142)
Construct: made in house; host or cells: E. coli
Sequence (P11142 whole entry): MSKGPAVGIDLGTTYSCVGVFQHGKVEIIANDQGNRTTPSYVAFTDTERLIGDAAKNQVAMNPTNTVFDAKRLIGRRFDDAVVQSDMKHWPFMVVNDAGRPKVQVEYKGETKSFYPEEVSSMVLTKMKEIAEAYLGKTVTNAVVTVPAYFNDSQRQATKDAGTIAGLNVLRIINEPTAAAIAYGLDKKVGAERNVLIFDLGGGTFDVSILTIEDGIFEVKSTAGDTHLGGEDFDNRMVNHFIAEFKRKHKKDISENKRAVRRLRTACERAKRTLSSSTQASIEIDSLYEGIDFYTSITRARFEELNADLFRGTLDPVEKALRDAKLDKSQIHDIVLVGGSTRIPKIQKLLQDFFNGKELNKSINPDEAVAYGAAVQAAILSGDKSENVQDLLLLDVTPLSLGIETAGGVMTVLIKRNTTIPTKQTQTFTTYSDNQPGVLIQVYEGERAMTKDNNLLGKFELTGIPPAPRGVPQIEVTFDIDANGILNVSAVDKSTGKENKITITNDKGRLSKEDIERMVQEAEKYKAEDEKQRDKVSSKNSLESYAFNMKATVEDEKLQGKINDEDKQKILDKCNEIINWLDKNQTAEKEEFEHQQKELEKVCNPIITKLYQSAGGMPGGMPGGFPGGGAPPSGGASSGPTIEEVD
experiment_description: Percent complexation of peptides with Hsc70 by size exclusion chromatography
Format: binding
condition_context: peptide:Hsc70 molar ratio 0.5:1; 60 minutes at 30° C.; SEC, 214 nm
# Percent complexation of peptides with Hsc70, 0.5:1 per entry
reported_endpoint: Percent complexation of peptides with Hsc70, 0.5:1 (%)

# primary_sequence, system, scale_unit, reported_measurement
records = [
    ("FFRKNRLLLTG [PEP002]", "human Hsc70 (Homo sapiens, UniProt P11142)", "%", 32.0),
    ("FFRKNWLLLTW [PEP003]", "human Hsc70 (Homo sapiens, UniProt P11142)", "%", 45.6),
    ("FFRKNLLRWTG [PEP004]", "human Hsc70 (Homo sapiens, UniProt P11142)", "%", 29.0),
    ("FFRKNWLKLWK [PEP058]", "human Hsc70 (Homo sapiens, UniProt P11142)", "%", 43.5),
    ("FFRKNFLRLTF [PEP027]", "human Hsc70 (Homo sapiens, UniProt P11142)", "%", 49.0),
    ("FFRKNWLRLKW [PEP011]", "human Hsc70 (Homo sapiens, UniProt P11142)", "%", 58.2),
    ("FFRKNLLRLTG [PEP001, reference compound]", "human Hsc70 (Homo sapiens, UniProt P11142)", "%", 44.7),
    ("FRNWLRLTW [PEP028]", "human Hsc70 (Homo sapiens, UniProt P11142)", "%", 46.4),
    ("FFRKNWLRLFW [PEP010]", "human Hsc70 (Homo sapiens, UniProt P11142)", "%", 42.2),
    ("FFRKFWLRLTW [PEP008]", "human Hsc70 (Homo sapiens, UniProt P11142)", "%", 38.3),
    ("FFRKNWLRLLW [PEP009]", "human Hsc70 (Homo sapiens, UniProt P11142)", "%", 63.5),
    ("FFRKQWLRLTW [PEP014]", "human Hsc70 (Homo sapiens, UniProt P11142)", "%", 54.4),
    ("FFRKNWLKLRW [PEP057]", "human Hsc70 (Homo sapiens, UniProt P11142)", "%", 50.0),
    ("FFRKNRLWLTG [PEP005]", "human Hsc70 (Homo sapiens, UniProt P11142)", "%", 32.7),
    ("FFRKNWLKLKW [PEP055]", "human Hsc70 (Homo sapiens, UniProt P11142)", "%", 52.2),
    ("FFRKNWIRITW [PEP013]", "human Hsc70 (Homo sapiens, UniProt P11142)", "%", 48.3),
    ("FFRKNWLRLTW [PEP006]", "human Hsc70 (Homo sapiens, UniProt P11142)", "%", 53.4),
    ("FFRKNWLKLTW [PEP012]", "human Hsc70 (Homo sapiens, UniProt P11142)", "%", 58.2),
    ("FFRKNLLRLTW [PEP155]", "human Hsc70 (Homo sapiens, UniProt P11142)", "%", 48.1),
]

* * *

# Percent complexation of peptides with Hsc70, 1:1 per entry
system: human Hsc70 (Homo sapiens)
Construct: made in house; host or cells: E. coli
experiment_description: Percent complexation of peptides with Hsc70 by size exclusion chromatography
Format: binding
condition_context: peptide:Hsc70 molar ratio 1:1; 60 minutes at 30° C.; SEC, 214 nm
reported_endpoint: Percent complexation of peptides with Hsc70, 1:1

# primary_sequence, reported_measurement
rows = [
    ("FFRKNWLKLKW [PEP055]", "75.9%"),
    ("FFRKFWLRLTW [PEP008]", "61.8%"),
    ("FFRKNWLKLTW [PEP012]", "79.2%"),
    ("FFRKNWLRLFW [PEP010]", "64.9%"),
    ("FFRKNLLRLTG [PEP001, reference compound]", "68.1%"),
    ("FFRKNWLKLWK [PEP058]", "66.5%"),
    ("FFRKNWIRITW [PEP013]", "69.6%"),
    ("FFRKNWLRLTW [PEP006]", "81.5%"),
    ("FFRKNFLRLTF [PEP027]", "77.0%"),
    ("FFRKNRLLLTG [PEP002]", "48.7%"),
    ("FFRKNWLRLKW [PEP011]", "81.6%"),
    ("FFRKQWLRLTW [PEP014]", "80.9%"),
    ("FFRKNWLRLLW [PEP009]", "81.0%"),
    ("FFRKNLLRWTG [PEP004]", "46.8%"),
    ("FFRKNRLWLTG [PEP005]", "54.8%"),
    ("FFRKNWLLLTW [PEP003]", "67.2%"),
    ("FFRKNLLRLTW [PEP155]", "75.6%"),
    ("FRNWLRLTW [PEP028]", "75.6%"),
    ("FFRKNWLKLRW [PEP057]", "72.2%"),
]

* * *

# Percent complexation of peptides with Hsc70, 4:1 per entry
system: human Hsc70 (Homo sapiens)
Construct: made in house; host or cells: E. coli
experiment_description: Percent complexation of peptides with Hsc70 by size exclusion chromatography
Type: binding
condition_context: peptide:Hsc70 molar ratio 4:1; 60 minutes at 30° C.; SEC, 214 nm
reported_endpoint: Percent complexation of peptides with Hsc70, 4:1 (%)

# primary_sequence, scale_unit, reported_measurement
records = [
    ("FFRKFWLRLTW [PEP008]", "%", 81.6),
    ("FFRKNLLRLTG [PEP001, reference compound]", "%", 90.1),
    ("FFRKNWLKLRW [PEP057]", "%", 88.3),
    ("FFRKNRLLLTG [PEP002]", "%", 78.8),
    ("FFRKNWLKLWK [PEP058]", "%", 83.9),
    ("FFRKNLLRWTG [PEP004]", "%", 75.3),
    ("FRNWLRLTW [PEP028]", "%", 87.5),
    ("FFRKNWLRLKW [PEP011]", "%", 90.4),
    ("FFRKNLLRLTW [PEP155]", "%", 86.6),
    ("FFRKQWLRLTW [PEP014]", "%", 90.3),
    ("FFRKNWLLLTW [PEP003]", "%", 87.6),
    ("FFRKNWLRLLW [PEP009]", "%", 89.0),
    ("FFRKNFLRLTF [PEP027]", "%", 90.0),
    ("FFRKNWLRLFW [PEP010]", "%", 86.5),
    ("FFRKNWLRLTW [PEP006]", "%", 91.8),
    ("FFRKNWIRITW [PEP013]", "%", 87.7),
    ("FFRKNRLWLTG [PEP005]", "%", 77.6),
    ("FFRKNWLKLKW [PEP055]", "%", 86.3),
    ("FFRKNWLKLTW [PEP012]", "%", 89.5),
]
